Target: SARS-CoV-2 Mac1 (Severe acute respiratory syndrome coronavirus 2, UniProt P0DTD1)
Experiment: biochemical
Conditions: read-out: %inhibition

>  <compound>
O=C(O)COc1nn(Cc2ccccc2)c2ccccc12 [Bendazac]

>  <inhibition at 100 µM>
3.85%

$$$$
>  <compound>
COC(=O)N[C@H](C(=O)N1CCC[C@H]1c1ncc(-c2ccc(-c3ccc(-c4cnc([C@@H]5CCCN5C(=O)[C@@H](NC(=O)OC)C(C)C)[nH]4)cc3)cc2)[nH]1)C(C)C [Daclatasvir (BMS-790052)]

>  <inhibition at 100 µM>
1.65%

$$$$
>  <compound>
OC[C@H]1O[C@@H](O[C@@H]2[C@@H](CO)OC(O)(CO)[C@H]2O)[C@H](O)[C@@H](O)[C@H]1O (mixture of isomers) [Lactulose]

>  <inhibition at 100 µM>
5.37%

$$$$
>  <compound>
COc1ccc(-c2nc3cc(C4=NNC(=O)CC4C)ccc3[nH]2)cc1 (stereo not shown) [Pimobendan]

>  <inhibition at 100 µM>
13%

$$$$
>  <compound>
CC(C)CN(C[C@@H](O)[C@H](Cc1ccccc1)NC(=O)O[C@H]1CO[C@H]2OCC[C@H]21)S(=O)(=O)c1ccc(N)cc1 [Darunavir Ethanolate]

>  <inhibition at 100 µM>
0%

$$$$
>  <compound>
COCC[n+]1c2c(n(Cc3cnccn3)c1C)C(=O)c1ccccc1C2=O [YM155 (Sepantronium Bromide)]

>  <inhibition at 100 µM>
0%

$$$$
>  <compound>
CNCc1ccc(-c2[nH]c3cc(F)cc4c3c2CCNC4=O)cc1

>  <inhibition at 100 µM>
10.4%

$$$$
